STUDY_TARGET: Shp1 (Homo sapiens (Human), UniProt P29350)
Sequence (P29350 203-595): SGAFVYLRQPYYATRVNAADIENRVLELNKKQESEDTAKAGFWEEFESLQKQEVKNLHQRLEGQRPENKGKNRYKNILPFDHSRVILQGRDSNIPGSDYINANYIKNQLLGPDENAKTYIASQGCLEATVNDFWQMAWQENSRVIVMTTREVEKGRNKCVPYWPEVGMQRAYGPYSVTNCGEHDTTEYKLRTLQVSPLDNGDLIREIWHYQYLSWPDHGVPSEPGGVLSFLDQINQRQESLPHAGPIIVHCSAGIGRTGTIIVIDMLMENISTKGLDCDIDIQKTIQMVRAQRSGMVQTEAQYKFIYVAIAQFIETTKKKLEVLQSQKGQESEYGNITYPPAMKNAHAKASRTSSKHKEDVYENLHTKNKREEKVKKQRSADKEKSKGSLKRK
ASSAY_INFO: biochemical
Friendly reminder: IC50 below 40 µM is Met, at or above is Not met.

Does the reported IC50 of the following molecule sit strictly below 40 µM? O=C1Nc2ccc(C(=O)O)cc2/C1=N/Nc1ccccc1C(=O)O [HL2-052-2]
Met

# check: IC50 < 40 µM for CC(C)NS(=O)(=O)c1ccc2c(c1)/C(=N/Nc1ccccc1[N+](=O)[O-])C(=O)N2 [RPM169]
Not met

In plain terms, does CC(C)NS(=O)(=O)c1ccc2c(c1)/C(=N/Nc1ccccc1C(=O)O)C(=O)N2 [RPM186] come in under 40 µM for IC50?
Met

Is IC50 of O=S(=O)(O)c1ccc2cc(/N=N\c3cc(S(=O)(=O)O)c4cccnc4c3O)ccc2c1 [NSC-87877] strictly below 40 µM?
Met

Does the reported IC50 of O=C1Nc2ccc(S(=O)(=O)NCc3ccc(Cl)cc3)cc2/C1=N/Nc1ccccc1[N+](=O)[O-] [RPM139] stay below 40 µM?
Not met

Hello, is IC50 of the following molecule strictly smaller than 40 µM? NS(=O)(=O)c1ccc2c(c1)/C(=N/Nc1ccccc1[N+](=O)[O-])C(=O)N2 [RPM134]
Not met

---

STUDY_TARGET: Shp2 (Homo sapiens (Human), UniProt Q06124)
Sequence (Q06124 205-593): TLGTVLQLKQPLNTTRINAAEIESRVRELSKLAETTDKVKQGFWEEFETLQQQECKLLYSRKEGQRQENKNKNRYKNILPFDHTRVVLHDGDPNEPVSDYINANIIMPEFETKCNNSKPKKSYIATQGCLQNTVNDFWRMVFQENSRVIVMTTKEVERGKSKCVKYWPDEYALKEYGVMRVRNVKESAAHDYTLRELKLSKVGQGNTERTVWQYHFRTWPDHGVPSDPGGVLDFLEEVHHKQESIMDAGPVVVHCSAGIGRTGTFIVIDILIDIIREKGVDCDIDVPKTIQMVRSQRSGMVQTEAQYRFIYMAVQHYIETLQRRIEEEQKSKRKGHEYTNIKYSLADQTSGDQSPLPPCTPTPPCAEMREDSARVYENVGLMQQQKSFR
ASSAY_INFO: PTP activity assay (DiFMUP substrate) with GST-Shp2
Assay type: biochemical
EXPERIMENTAL_CONTEXT: concentration not given
ASSAY_ENDPOINT: % PTP activity

# return recorded % PTP activity for entry CC(C)NS(=O)(=O)c1ccc2c(c1)/C(=N/Nc1ccccc1[N+](=O)[O-])C(=O)N2 [RPM169]
8 + 3% (12)

Assign % PTP activity to the following record: O=C1Nc2ccc(S(=O)(=O)NCc3cccs3)cc2/C1=N/Nc1ccccc1[N+](=O)[O-] [RPM140]
37 ± 4% (6)

Fill in % PTP activity for record CCOC(=O)c1cccc(NC(=O)c2ccc3cc(C(=O)OC)ccc3c2)c1 [HL2-022-1-Intermediate]
68 ± 20% (7)

Find the measured % PTP activity of O=C1Nc2ccc(S(=O)(=O)O)cc2/C1=N/Nc1cccc([N+](=O)[O-])c1 [HL1-058-2] and report it.
73 ± 7% (3)

Please give measured % PTP activity of the following entry: O=C1Nc2ccc(S(=O)(=O)NCC3CCCO3)cc2/C1=N/Nc1ccccc1Cl (centres unmarked) [HL2-016-14]
42 ± 5% (6)

Report % PTP activity for O=C1Nc2ccc(S(=O)(=O)NCC3CCCO3)cc2/C1=N/Nc1ccccc1[N+](=O)[O-] (centres unmarked) [RPM172]
35 ± 5% (12)

Give a short answer stating reported % PTP activity for O=C1Nc2ccccc2/C1=N/Nc1cccc([N+](=O)[O-])c1 [HL1-050-2] .
32 ± 3% (3)

Could you please provide reported % PTP activity for CN(C)S(=O)(=O)c1ccc2c(c1)/C(=N/Nc1ccccc1[N+](=O)[O-])C(=O)N2Cc1ccccc1 [RPM156] ? Thanks!
34 ± 4% (12)

---

STUDY_TARGET: Shp2 (Homo sapiens (Human))
ASSAY_INFO: PTP activity assay (DiFMUP substrate) with GST-Shp2
Format: biochemical
EXPERIMENTAL_CONTEXT: Table II, Shp2
ASSAY_ENDPOINT: IC50

For the compound "O=C1Nc2ccc(S(=O)(=O)O)cc2/C1=N/Nc1cccc([N+](=O)[O-])c1" , give its measured IC50 value.
33 to 100 µM

Indicate its recorded IC50; the compound in question is "O=C1Nc2ccc(S(=O)(=O)O)cc2/C1=N/Nc1cccc2ccccc12"
33 to 100 µM

Please give the documented IC50 of "O=C1Nc2ccccc2/C1=N/Nc1ccccc1[N+](=O)[O-]"
33 to 100 µM

Return reported IC50. Input compound: "CC(C)NS(=O)(=O)c1ccc2c(c1)/C(=N/Nc1cccc(C(=O)NCc3ccco3)c1)C(=O)N2"
33 to 100 µM

For the compound COC(=O)c1cc(NC(=O)c2ccc3cc(C(=O)OC)ccc3c2)cc(C(=O)OC)c1 [HL2-026-Intermediate] , report IC50.
33 to 100 µM

Report measured IC50; entry is "O=C1Nc2ccc(C(=O)O)cc2/C1=N/Nc1ccccc1F"
> 100 µM

Check the records and state IC50 for "CC(C)NS(=O)(=O)c1ccc2c(c1)/C(=N/Nc1ccccc1C(=O)NCc1cccnc1)C(=O)N2"
33 to 100 µM

Identify measured IC50 associated with "CC(C)NS(=O)(=O)c1ccc2c(c1)/C(=C/Nc1ccc(C(=O)O)cc1)C(=O)N2"
33 to 100 µM

State its IC50: "O=C(O)c1ccc2cc(C(=O)Nc3c(O)cccc3C(=O)O)ccc2c1"
33 to 100 µM
